Test system: Vaccinia virus
TEST_NAME: Inhibition of Vaccinia virus DNA synthesis in by rapid plate assay
Format: functional, organism-based
CONDITIONS_USED: Orthopoxvirus vaccinia
MEASURE: pIC50
In simple prose, pIC50 is minus the logarithm base ten of a concentration in moles per litre.

Report pIC50 on Vaccinia virus for this entry: `N=C(N)Nc1nc(-c2ccccc2)c2ccccc2n1` 4.68

Report pIC50 on Vaccinia virus for this entry: `O=C1NC(=S)N(c2ccccc2)C(=O)/C1=C\C=C\c1ccco1` 3.84

Report pIC50 on Vaccinia virus for this entry: Cc1ccc2oc(=O)c3cc(C(=O)NCCN4CCCCC4C)sc3c2c1 (configuration not stated) 4.60

Report pIC50 on Vaccinia virus for this entry: CC1=NN(c2ccccc2)C(=O)/C1=C\c1cn(CC(O)CN2CCCCC2)c2ccccc12 (configuration not stated) 4.62

Report pIC50 on Vaccinia virus for this entry: `Cc1csc2c(N3CCN(C(=O)NC(C)(C)C)CC3)ncnc12` 4.92

Report pIC50 on Vaccinia virus for this entry: `CCOC(=O)c1c(NC(=O)/C=C/C(=O)O)sc(C)c1-c1ccccc1` 3.43

Report pIC50 on Vaccinia virus for this entry: `COC(=O)c1cccc2c1-c1ccccc1/C2=N\O` 3.97

Report pIC50 on Vaccinia virus for this entry: `CN(C)CCN(C(=O)c1ccco1)c1nc2cc3c(cc2s1)OCO3` 4.54

Report pIC50 on Vaccinia virus for this entry: `CCN(CC)Cn1nc2c3c(cccc3c1=O)-c1ccccc1-2` 4.60

Report pIC50 on Vaccinia virus for this entry: `N=C1/C(=C/c2coc3ccccc3c2=O)C(=O)N=C2SC=NN12` 4.12

Report pIC50 on Vaccinia virus for this entry: COC(=O)C(C(=O)OC)C(Nc1ccccc1)c1ccccc1 (configuration not stated) 3.20

Report pIC50 on Vaccinia virus for this entry: `c1ccc(CNc2ccc3c(ccc4c5ccccc5[nH]c34)n2)cc1` 3.94

Report pIC50 on Vaccinia virus for this entry: `O=C(O)c1cc(Cc2ccc(O)c(C(=O)O)c2)ccc1O` 4.29

Report pIC50 on Vaccinia virus for this entry: `CCN1CCN(c2ccc(Nc3ccnc4cc5ccccc5cc34)cc2)CC1` 6.30

Report pIC50 on Vaccinia virus for this entry: `CN(C)CCOC(=O)c1ccc2[nH]c3c(c2c1)CSCC3` 3.94

Report pIC50 on Vaccinia virus for this entry: `CN1CCc2c(-c3cccs3)nc(OCc3ccccc3Br)c(C#N)c2C1` 3.95

Report pIC50 on Vaccinia virus for this entry: `Cc1c(/N=C/c2cc(Br)cc(Br)c2O)cccc1C(=O)O` 4.59

Report pIC50 on Vaccinia virus for this entry: `CCOC(=O)c1cnc2c(C)c(C)ccc2c1NCCCN(C)C` 5.30

Report pIC50 on Vaccinia virus for this entry: `CN(c1ccccc1C(=O)O)S(=O)(=O)c1ccc2c3c(cccc13)C(=O)N2` 4.12

Report pIC50 on Vaccinia virus for this entry: `CCNc1nc(SCc2ccc(Cl)cc2)nc2sc3c(c12)CCN(C)C3` 3.89

Report pIC50 on Vaccinia virus for this entry: `N=C1S/C(=C/c2ccco2)C(=O)N1c1nccs1` 4.49

Report pIC50 on Vaccinia virus for this entry: `Cc1cc(/N=C/c2cc(Cl)cc(Cl)c2O)no1` 4.52

Report pIC50 on Vaccinia virus for this entry: `Oc1ccc(C2(c3ccc(O)cc3)CCCC2)cc1` 4.15

Report pIC50 on Vaccinia virus for this entry: `CC(=O)n1c2ccccc2c2nc(C)sc21` 3.95

Report pIC50 on Vaccinia virus for this entry: `c1ccc2nc3c(nc2c1)c1ccccc1n3CCN1CCOCC1` 4.55

Report pIC50 on Vaccinia virus for this entry: `Nc1[nH]c(=S)sc1C(=O)Nc1nccs1` 4.39

Report pIC50 on Vaccinia virus for this entry: `COc1ccc2c(C)nc(N/C(N)=N/C(C)=O)nc2c1` 4.80

Report pIC50 on Vaccinia virus for this entry: Cc1cc(OCC(=O)NC(Cc2c[nH]c3ccccc23)C(=O)O)cc(C)c1Cl (configuration not stated) 4.14

Report pIC50 on Vaccinia virus for this entry: `O=C(O)c1cc(-c2cccs2)nc2ccc(Br)cc12` 4.20

Report pIC50 on Vaccinia virus for this entry: `O=C(/C=C/c1ccco1)/C=C/c1ccco1` 4.60

Report pIC50 on Vaccinia virus for this entry: `O=C1/C(=C/c2ccc(Br)o2)CC/C1=C\c1ccc(Br)o1` 4.02
